- study target: T1, human CCR8 (human, UniProt P51685 1-355)
- T1 construct: also called hCCR8; hCCR8_P51685
- experimental details: flow cytometry, hCCR8 transfected CHOK1 cells
Tag: Condition met if measured % positive cells is not below 80%, Condition not met if it is.

Please review the following examples before continuing.
[[record]]
binder = "anti-CCR8 mAb 2-5 (antibody, V domains shown) VH: EVQLQQSGPELVKPGASVKISCKTSGYTFTEYTIHWVKQSHGKSLEWVGGINPDNGNTRYDQKFKGKATLTIDKSSSTAYMELRSLTSEDSAVYYCARVARSSGSGPYAMDYWGQGTSVTVSS VL: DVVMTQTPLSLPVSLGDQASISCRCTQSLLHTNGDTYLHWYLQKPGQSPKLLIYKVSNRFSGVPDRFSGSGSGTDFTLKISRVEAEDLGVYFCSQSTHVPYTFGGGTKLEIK"
group = "Condition not met"

[[record]]
binder = "anti-CCR8 mAb 2-1 (antibody, V domains shown) VH: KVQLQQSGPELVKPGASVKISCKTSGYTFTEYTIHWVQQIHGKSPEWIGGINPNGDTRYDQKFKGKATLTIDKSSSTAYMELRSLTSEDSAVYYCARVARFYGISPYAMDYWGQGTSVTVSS VL: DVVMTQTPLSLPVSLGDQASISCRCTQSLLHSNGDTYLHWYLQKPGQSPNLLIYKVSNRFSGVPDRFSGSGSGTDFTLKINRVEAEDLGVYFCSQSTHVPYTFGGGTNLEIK"
group = "Condition met"

[[record]]
binder = "anti-CCR8 mAb 2-11 (antibody, V domains shown) VH: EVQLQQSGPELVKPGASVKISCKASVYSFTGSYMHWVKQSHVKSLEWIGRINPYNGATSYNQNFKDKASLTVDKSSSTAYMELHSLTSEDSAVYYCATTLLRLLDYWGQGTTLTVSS VL: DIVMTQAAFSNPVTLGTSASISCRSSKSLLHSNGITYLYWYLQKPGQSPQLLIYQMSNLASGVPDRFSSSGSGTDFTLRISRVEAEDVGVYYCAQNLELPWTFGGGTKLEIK"
group = "Condition not met"

[[record]]
binder = "anti-CCR8 mAb 2-7 (antibody, V domains shown) VH: QVQLKESGPGLVAPSQSLSITCTVSGFSLTDYRVSWIRQPPGKGLEWLGVIWGGRSTYYNSALKSRLSISKDNSKSQVFLKMNSLQTDDTAMYYCAKQGDGYYALDYWGQGTSVTVSS VL: DVVMTQTPLSLPVSLGDQASISCRSSQSLVHSYGNTYLHWYLQKPGQSPKLLIYKVSNRFSGVPDRFHGSGSGTDFTLKISRVEAEDLGVYFCSQSTHVPPTFGGGTKLEIK"
group = "Condition not met"

[[record]]
binder = "anti-CCR8 mAb 2-4 (antibody, V domains shown) VH: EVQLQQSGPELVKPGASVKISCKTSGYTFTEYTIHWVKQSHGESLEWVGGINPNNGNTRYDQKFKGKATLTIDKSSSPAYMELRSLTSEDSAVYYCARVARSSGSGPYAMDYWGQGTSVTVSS VL: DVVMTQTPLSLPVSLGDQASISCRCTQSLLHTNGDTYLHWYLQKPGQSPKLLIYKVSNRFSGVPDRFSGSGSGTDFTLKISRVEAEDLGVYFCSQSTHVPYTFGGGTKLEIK"
group = "Condition not met"

[[record]]
binder = "anti-CCR8 mAb 2-6 (antibody, V domains shown) VH: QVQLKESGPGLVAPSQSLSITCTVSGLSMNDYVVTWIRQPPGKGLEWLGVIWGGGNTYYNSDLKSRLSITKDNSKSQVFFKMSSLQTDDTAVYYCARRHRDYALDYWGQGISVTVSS VL: ENVLTQSPAIMSASPGEKVTMTCRASSSVSSSYLHWYQQKSGASPKLWIYSTSNLASGVPARFSGSGSGTSYSLTISSVEAEDAATYYCQQYSGYPYTFGGGTKLEIK"
group = "Condition not met"

[[record]]
binder = "anti-CCR8 mAb 2-2 (antibody, V domains shown) VH: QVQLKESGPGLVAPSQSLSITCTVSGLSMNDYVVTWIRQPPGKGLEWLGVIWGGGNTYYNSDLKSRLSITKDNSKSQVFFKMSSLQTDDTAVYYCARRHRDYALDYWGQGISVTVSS VL: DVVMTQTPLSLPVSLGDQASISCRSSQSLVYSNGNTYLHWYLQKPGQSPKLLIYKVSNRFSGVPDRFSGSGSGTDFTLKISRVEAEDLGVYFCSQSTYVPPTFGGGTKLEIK"
group = "Condition met"

[[record]]
binder = "anti-CCR8 mAb 2-10 (antibody, V domains shown) VH: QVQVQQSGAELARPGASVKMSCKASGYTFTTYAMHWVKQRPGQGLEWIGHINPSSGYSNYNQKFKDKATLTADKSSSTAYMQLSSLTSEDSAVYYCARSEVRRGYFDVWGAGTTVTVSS VL: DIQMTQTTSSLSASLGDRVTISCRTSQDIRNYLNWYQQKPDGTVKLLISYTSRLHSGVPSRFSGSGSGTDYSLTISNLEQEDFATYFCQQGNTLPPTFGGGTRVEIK"
group = "Condition not met"


Please find the next binder below.
Input line: Hello, I need to know if Ref #1 (TPP-21360 of WO 2021/260210) (antibody, human IgG1, V domains shown, Benchmark; variable regions cloned into vectors encoding heavy and light chains of human IgG1, produced in CHO) VH: EVQLLESGGGLVQPGGSLRLSCAASGFTFSSYGMHWVRQAPGKGLEWVSAINWNGGSTGYADSVKGRFTISRDNSKNTLYLQMNSLRAEDTAVYYCARGHHSGYDGRFFDYWGQGTLVTVSS VL: QSVLTQPPSVSGAPGQRVTISCTGSSSNIGAGYNVHWYQQLPGTAPKLLIYTNNRRPSGVPDRFSGSKSGTSASLAISGLRSEDEADYYCAAWDASLSGWVFGGGTKLTVL has measured % positive cells not below 80%. Thanks!
Output line: Condition not met

The measurements presented in this section are drawn from patent US20260167731A1.
